Experiment summary: TLR3 IRF3 reporter activation blockers – cell-based, poly I:C stimulus, luciferase, 10K MLSCN set, primary screen (AID 602277)
Setup conditions: HEK293-TLR3 RL24 IRF3 luciferase reporter, at 10 µM, stronger effect = higher value
Activity calls are given as the source filed them.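 The calls were made as follows: active = inhibition of the reporter signal at or above 50%; inactive = inhibition below 50%.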
inhibition: recorded values

Compound	inhibition
CCCS(=O)(=O)N1CCN(C(=O)c2cccs2)CC1	3.31% (inactive)
O=C(Nc1cccc2ccccc12)N1CCOCC1	23.7% (inactive)
Cc1cccc(-n2ncc3c(N4CCC5(CC4)OCCO5)ncnc32)c1	-101% (inactive)
Cc1ccc(C(C)C)c(OCCn2c(=O)oc3ccccc32)c1	-27.2% (inactive)
C=CCn1c(=O)c(C(=O)Nc2ccccc2C(=O)OCC)c(O)c2ccccc21	14.7% (inactive)

*Q* For CC(C)CCN1CC(C(=O)NCc2ccccc2)CC1=O (configuration not stated) , what is its reported inhibition?
*A* 14.3% (inactive)

*Q* What do you have for CC1CCc2nn(CC(=O)Nc3ccc(F)cc3F)cc2C1 (configuration not stated) ?
*A* 21.4% (inactive)

*Q* What do you have for COC(=O)c1ccccc1NC(=O)N1CCCC1 ?
*A* 0.116% (inactive)

*Q* What do you have for CC(=O)OC(C(=O)NC1CCCCC1)c1ccncc1 (configuration not stated) ?
*A* 13.3% (inactive)

*Q* What do you have for CC1(C)CC(=O)c2sc(NS(C)(=O)=O)nc2C1 ?
*A* 27.8% (inactive)

====

Experiment summary: endothelial E-selectin expression blockers – imaging, HUVEC, immunofluorescence, MLSMR starter and 10KST1 sets, primary screen (AID 487);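 also: 100% = median nuclei count of all wells on the same plate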
Setup conditions: HUVEC TNFalpha-induced E-selectin immunofluorescence imaging, at 2 µM; measured here: cell number, toxicity
nuclei count: recorded values
Report the value in % with no unit label.

*Q* For CCOc1ccccc1CN(Cc1ccco1)S(=O)(=O)c1ccc(-n2cnnn2)c(OC)c1 , what is its reported nuclei count?
*A* 113

*Q* What do you have for CC(C)C1N=C2c3ccccc3N=C(SCc3cc(=O)n4ccccc4n3)N2C1=O (configuration not stated) ?
*A* 90

*Q* What do you have for COc1ccc2[nH]c(=O)c(CN(Cc3cccs3)S(=O)(=O)c3cccc4nsnc34)cc2c1 ?
*A* 110

*Q* What do you have for COc1ccc(NC(=O)CN(c2cc(C)cc(C)c2)S(=O)(=O)c2c(C)noc2C)cc1OC ?
*A* 117

*Q* What do you have for CCC1(c2ccc(F)cc2)NC(=O)N(CC(=O)c2ccc[nH]2)C1=O (configuration not stated) ?
*A* 114

*Q* What do you have for COc1cccc(-c2cc(C(F)(F)F)nc(NCc3ccco3)n2)c1 ?
*A* 94.3

*Q* What do you have for CC(=O)c1ccc(NC2OC(C)C(O)C(O)C2O)cc1 (configuration not stated) ?
*A* 103

*Q* What do you have for COc1cccc(C2CC(c3ccc(C)cc3)n3nc(N)nc3N2)c1 (configuration not stated) ?
*A* 106

*Q* What do you have for Cc1ccc(C)c(N2CCN(S(=O)(=O)c3ccc4c(c3)OCCO4)CC2)c1 ?
*A* 209

*Q* What do you have for COc1cc(C(c2sc3nc(C)nn3c2O)N2CC(C)CC(C)C2)cc(OC)c1OC (configuration not stated) ?
*A* 109

*Q* What do you have for COc1ccc(C)cc1NCc1cccc(OC)c1OC ?
*A* 110

*Q* What do you have for O=C(CSc1nc(-c2ccco2)cc(C(F)(F)F)n1)NCCCn1ccnc1 ?
*A* 113

*Q* What do you have for Cc1ccc2nc(-c3ccccn3)cc(C(=O)N3CCN(c4ncccn4)CC3)c2c1 ?
*A* 115

*Q* What do you have for CCC(=O)Nc1ccc(Cl)c(NC(=O)C(C)C)c1 ?
*A* 81.5

*Q* What do you have for O=C(OC1CCOC1=O)c1ccc(S(=O)(=O)N2CCCCCC2)cc1 (configuration not stated) ?
*A* 97.1

*Q* What do you have for CC(=O)NCCc1nc2ccccc2[nH]1 ?
*A* 106

*Q* What do you have for CN(C)c1nc(N)nc(-c2nc3ccccc3s2)n1 ?
*A* 122

*Q* What do you have for COc1cccc(OC)c1OCCCSc1nc(C)cc(=O)[nH]1 ?
*A* 97.1

*Q* What do you have for COC(=O)c1ccc(C)c(NS(=O)(=O)c2ccc3c(c2)OCCO3)c1 ?
*A* 94

====

inhibition: recorded values
Experiment summary: blockers of RIG-like receptor reporter activation – cell-based, Sendai virus stimulus, luciferase, 10K MLSCN set, TLR/RLR signaling modifier project, primary screen (AID 602276);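 also: firefly luciferase from ISG56 promoter only with Renilla not read in this screen; 0% = Sendai virus plus DMSO and 100% = medium plus DMSO without virus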
Setup conditions: HEK293 RL24 IRF3 luciferase reporter, at 10 µM, stronger effect = higher value
Calls of active or inactive are those of the source.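 How the source made its calls: active means inhibition at or above 50% at 10 µM; inactive means inhibition below 50%.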

Some entries whose results are on file:
Molecule	inhibition
CC1(C)CC(=O)c2sc(NS(C)(=O)=O)nc2C1	18.2% (inactive)
COc1cc2c(cc1OC)C(C)N(C(=O)c1cc3n(n1)C(C(F)(F)F)CC(c1ccco1)N3)CC2 (stereo unspecified)	25.6% (inactive)
COc1ccc(-n2ncc3c(=O)n(CC(=O)OCc4ccccc4)cnc32)cc1	-0.623% (inactive)
COC(=O)c1cccc(S(=O)(=O)N2CCC(C)CC2)c1	0.114% (inactive)
O=C(CN1CCC(c2nc3ccccc3s2)CC1)NCc1cccs1	-1.46% (inactive)
CCn1nc(C(=O)OCC(=O)N2CCc3ccccc32)c2ccccc2c1=O	-3.24% (inactive)

*Q* For CCOC(=O)C1CCCN(C/C(O)=C(\C#N)c2nc(-c3ccc(Cl)cc3)cs2)C1 (stereo unspecified) , what is its reported inhibition?
*A* 14.3% (inactive)

*Q* What do you have for C=CCN(C(=O)CNC(=O)c1ccco1)C(C(=O)NC1CCCCC1)c1ccccc1F (stereo unspecified) ?
*A* -3.24% (inactive)

====

Experiment summary: blockers of RIG-like receptor reporter activation – cell-based, Sendai virus stimulus, luciferase, 10K MLSCN set, TLR/RLR signaling modifier project, primary screen (AID 602276);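 also: firefly luciferase from ISG56 promoter only with Renilla not read in this screen; 0% = Sendai virus plus DMSO and 100% = medium plus DMSO without virus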
Setup conditions: HEK293 RL24 IRF3 luciferase reporter, at 10 µM, stronger effect = higher value
inhibition: recorded values
Report the value in % with no unit label.

Molecule	inhibition, %
c1ccc(Oc2ccc(-n3cnnn3)cc2)cc1	-11.3
CCOC(=O)CN(C(=O)CSc1nnc(-c2ccncc2)n1CCCN(C)C)c1ccccc1	14.2
COc1ccc(OC)c(NC(=O)CSc2nnc(Cc3cccn3C)n2-c2ccc(F)cc2)c1	19.4
COc1ccccc1NC(=O)NCCCN1CCN(c2cccc(Cl)c2)CC1	-24.8
CCCc1nnc(SCC(=O)N2CCOCC2)n1Cc1ccco1	19.5
COc1ccc(Cl)c(NCCC(=O)O)c1	-8.17
COc1ccc(-c2c(C(F)(F)F)oc3c(CN4CCN(C)CC4)c(O)ccc3c2=O)cc1	-6.41
CCCS(=O)(=O)N1CCN(C(=O)c2cccnc2)CC1	8.38
COc1cccc(C2C(C(N)=O)=C(C)Nc3nc(CCCO)nn32)c1OC (configuration not stated)	-11.2
CCN(CC)S(=O)(=O)c1ccc2[nH]cc(C(=O)NCCC3=CCCCC3)c(=O)c2c1	12

*Q* For CC(=O)c1cccc(NC(=O)N2CCCc3ccccc32)c1 , what is its reported inhibition?
*A* 9.66

*Q* What do you have for CCOC(=O)CN1C(=O)C2(OCCCO2)c2ccccc21 ?
*A* 1.67

*Q* What do you have for CCc1nnc(NC(=O)c2ccc(COc3ccccc3)o2)s1 ?
*A* -7.49

*Q* What do you have for CCCC(=O)Nc1cccc(NC(=O)CN2CCN(c3ccccc3OC)CC2)c1 ?
*A* -1.32

*Q* What do you have for COCCNC(=O)CN1C(=O)CSc2ncccc21 ?
*A* 11.1

*Q* What do you have for Cc1ccc2c(c1)N(CC(=O)N1CCCCC1c1cccnc1)C(=O)CO2 (configuration not stated) ?
*A* -2.12

*Q* What do you have for O=C(O)c1cccn2c(=O)c3ccccc3nc12 ?
*A* 8.6

*Q* What do you have for CCCc1c(O)nc(SCC(=O)NCCc2ccc(OC)c(OC)c2)[nH]c1=O ?
*A* 13.2

*Q* What do you have for O=C(Nc1ccccc1)c1cnc2n(c1=O)CCS2 ?
*A* -16.4

*Q* What do you have for Cc1nc2ccc(Br)cn2c1NC(C)(C)C ?
*A* -1.2

*Q* What do you have for Cc1ccc(C)c(N2CCN(C(=O)CCCn3c(=S)[nH]c4cc5c(cc4c3=O)OCO5)CC2)c1 ?
*A* 0.122

*Q* What do you have for OC(CN1CCN(c2ccccc2)CC1)c1ccc2c(c1)CCN2 (configuration not stated) ?
*A* 6.89

*Q* What do you have for COC(=O)Nc1sc2c(c1C(N)=O)CCCCCC2 ?
*A* 5.06

*Q* What do you have for Cc1nc2cc(N3CCCCC3)c(NC(=O)c3cccnc3)cc2c(=O)n1Cc1ccccc1 ?
*A* -3.36

*Q* What do you have for C/C=C/c1ccc(OCCn2cncn2)c(OC)c1 ?
*A* -19.9

Cited source for all entries: PubChem BioAssay
